assay-notes: Cytotoxicity against african green monkey Vero cells measured after 24 hrs
Assay type: toxicity, cell-based
test-parameters: chlorocebus sabaeus, read-out: LD50
assay-metric: CC50 at 24 h

(Q) Quick check: CC50 at 24 h of C#CCN(Cc1nc(-c2ccccc2)oc1C)C1C[C@@H]2C[C@H]([C@H]1C)C2(C)C (stereo partly specified) ?
(A) > 100 µM

----------
For each record, write down the corresponding IC50.
Express it in µM; write the number only.

(Q) Missing value: IC50, Thioredoxin glutathione reductase (Schistosoma mansoni), entry `C[C@@H]1[C@H]2C[C@@H](C[C@H]1NCc1cn([C@@H]3OC[C@@H](O)[C@H](O)[C@H]3O)c3ccccc13)C2(C)C` . Fill in?
(A) 57.5

(Q) Write down the reported IC50 of C#CCN(Cc1nc(-c2ccccc2)oc1C)C1C[C@@H]2C[C@H]([C@H]1C)C2(C)C (some centres not stated) , test system: Thioredoxin glutathione reductase (Schistosoma mansoni).
Sequence (Q962Y6 whole entry): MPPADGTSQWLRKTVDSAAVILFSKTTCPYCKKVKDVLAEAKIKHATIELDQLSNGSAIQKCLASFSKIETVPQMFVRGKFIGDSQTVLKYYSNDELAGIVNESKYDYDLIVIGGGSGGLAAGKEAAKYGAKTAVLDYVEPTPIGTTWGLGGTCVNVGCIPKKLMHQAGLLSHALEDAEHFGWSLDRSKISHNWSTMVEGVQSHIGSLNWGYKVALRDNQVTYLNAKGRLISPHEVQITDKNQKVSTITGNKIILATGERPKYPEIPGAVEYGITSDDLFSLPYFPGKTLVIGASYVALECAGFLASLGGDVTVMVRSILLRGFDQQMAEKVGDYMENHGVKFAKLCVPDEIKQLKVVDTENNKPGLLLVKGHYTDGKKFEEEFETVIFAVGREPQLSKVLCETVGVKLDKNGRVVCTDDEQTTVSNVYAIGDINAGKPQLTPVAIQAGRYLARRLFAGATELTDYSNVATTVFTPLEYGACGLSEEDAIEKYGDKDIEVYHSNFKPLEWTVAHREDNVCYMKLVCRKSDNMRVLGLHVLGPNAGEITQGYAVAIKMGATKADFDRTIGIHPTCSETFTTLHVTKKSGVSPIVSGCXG
(A) 2.5
